Hello, the source for this data is patent US20100099561A1, in case you need it.

System: morningglory (Ipomoea spp.)
run-description: Test A postemergence, morningglory
Assay type: in vivo
cond: 500 g ai/ha, 0 to 100 scale (0 no effect, 100 complete control)
Could you please report measured Plant response rating, Morningglory for the items listed next?

Fill in the blank: the reported Plant response rating, Morningglory of CC1(C)CC([S+]([O-])Cc2c(C(F)(F)C(F)(F)F)nc3n(c2=O)CCCS3)=NO1 (centres unmarked) is ____.
10

What do you have for CC1(C)CC([S+]([O-])Cc2c(C(F)(F)F)nc3n(c2=O)CCCCC3)=NO1 (centres unmarked) ?
40

What do you have for CC1(C)CC(S(=O)(=O)Cc2c(C(F)(F)F)nc3cnccn3c2=O)=NO1 ?
30

What do you have for CC1(C)CC(S(=O)(=O)Cc2c(C(F)(F)F)nc3n(c2=O)CCC3)=NO1 ?
60

What do you have for CC1(C)CC(S(=O)(=O)Cc2c(C(F)(F)F)nc3ccsn3c2=O)=NO1 ?
50

What do you have for CC1(C)CC(S(=O)(=O)Cc2c(C(F)(F)F)nc3ccon3c2=O)=NO1 ?
0

What do you have for CCn1c(=O)c(CS(=O)(=O)C2=NOC(C)(C)C2)nc2ccccc21 ?
0

What do you have for CC1(C)CC(S(=O)(=O)Cc2c(C(F)(F)F)nc3n(c2=O)CCS3)=NO1 ?
50
